Data credit: paper PMC6749236

- System: Escherichia coli MG1655 (pRecA-lux)
- method: Genotoxicity, bacterial lux-biosensor
- Type: cell-based
- condition.context: with metabolic activation (+S9); 10^−8 M
measurement.name: Genotoxicity (induction factor, I)
Form field (numeric): enter value without unit.

[ask] Look up Genotoxicity (induction factor, I) of O=C(Nc1ccc(F)cc1)N1CCCC1c1ccc(Nc2c([N+](=O)[O-])c(Cl)cc3c2no[n+]3[O-])cc1O (centres unmarked) and report it.
[reply] 1.35

[ask] # return recorded Genotoxicity (induction factor, I) for input O=C(Nc1ccc(Br)cc1)N1CCCC1c1ccc(Nc2c([N+](=O)[O-])c(Cl)cc3c2no[n+]3[O-])cc1O (centres unmarked)
[reply] 0.79

[ask] Determine from records and report Genotoxicity (induction factor, I) for "O=[N+]([O-])c1c(Cl)cc2c(no[n+]2[O-])c1Nc1cccc(O)c1"
[reply] 1.11

[ask] Write down Genotoxicity (induction factor, I) measured for item COc1ccc(NC(=O)N2CCCC2c2ccc(Nc3c([N+](=O)[O-])c(Cl)cc4c3no[n+]4[O-])cc2O)cc1 (centres unmarked)
[reply] 1.37

[ask] Provide measured Genotoxicity (induction factor, I) value, entry: O=C(Nc1ccccc1)N1CCCC1c1ccc(Nc2c([N+](=O)[O-])c(Cl)cc3c2no[n+]3[O-])cc1O (centres unmarked)
[reply] 1.31
